Values compiled from patent US20150004189A1.

# measured-on: HLA DQ molecule DQB1*0502 (human)
# test-name: inhibition of radiolabeled peptide binding to purified HLA class II
measured-parameter: pIC50
Answer as the number alone; pIC50 is minus log10 of concentration in mol/L.

### Prompt Identify measured pIC50 corresponding to GIFLSVAAGNEAENA (modifications not checked) [Pen ch 13 (271-285) peptide …, Peptide ID 3324.1303]
### Response 4.30
